B1: glmS ribozyme (parent)
chain: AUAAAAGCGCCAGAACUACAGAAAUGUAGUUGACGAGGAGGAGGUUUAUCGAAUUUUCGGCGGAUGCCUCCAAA

Variants of: B1
Assay: self-cleavage kobs at 40 uM GlcN6P; higher = faster cleavage; RNA array
Details: with glucosamine-6-phosphate
Fewer inactive variants are shown than the library holds.
Reported self-cleavage kobs at 40 uM GlcN6P values for the following variants.

// worked examples, self-cleavage kobs at 40 uM GlcN6P included
> print(dat)
     mutant.label                   quantity.measured       reading
1        G9A G37A  self-cleavage kobs at 40 uM GlcN6P   < 1e-05 s⁻¹
2  C50G U57A C58G  self-cleavage kobs at 40 uM GlcN6P  8.29e-05 s⁻¹
3        A6G A52G  self-cleavage kobs at 40 uM GlcN6P   < 1e-05 s⁻¹

Incoming: Supply recorded self-cleavage kobs at 40 uM GlcN6P for A42U C68A here.
Outgoing: < 1e-05 s⁻¹

Incoming: Supply recorded self-cleavage kobs at 40 uM GlcN6P for G44U C61G here.
Outgoing: < 1e-05 s⁻¹

Incoming: Supply recorded self-cleavage kobs at 40 uM GlcN6P for C11U A36G C58U C67G here.
Outgoing: 4.33e-05 s⁻¹
